test system: HCV 1b-377-neo replicon cells; assay: HCV Replicon assay, HCV 1b-377-neo replicon cells; format: cell-based, HCV 1b genotype; details: Hepatitis C virus, Table 2, read-out: Range (EC50 against HCV 1b)
Measure Name: EC50

Compound	Measure Name	Observed Result
COC(=O)N[C@H](C(=O)Nc1ncc(-c2ccc(-c3ccc(-c4cnc([C@@H]5CCCN5C(=O)[C@@H](NC(=O)OC)C(C)C)[nH]4)cc3)cc2)[nH]1)C(C)C	EC50	1 to 99 nM
CN(C)[C@@H](C(=O)N1CCC[C@H]1c1ncc(-c2ccc(-c3ccc(-c4cnc([C@@H]5CCCN5C(=O)[C@@H](c5ccccc5)N(C)C)[nH]4)nn3)cc2)[nH]1)c1ccccc1 [Example 152j-9]	EC50	1 to 99 nM
COC(=O)N[C@H](C(=O)N1CCC[C@H]1c1nc(-c2cnc(-c3ccc(-c4cnc([C@@H]5CCCN5C(=O)[C@@H](NC(=O)OC)C(C)C)[nH]4)cc3)nc2)c[nH]1)C(C)C	EC50	0.001 to 0.999 nM
COC(=O)N[C@@H](C(=O)N1CCC[C@H]1c1ncc(-c2cnc(-c3cnc(-c4cnc([C@@H]5CCCN5C(=O)[C@H](NC(=O)OC)c5ccccc5)[nH]4)cn3)cn2)[nH]1)c1ccccc1 [Example 153c-6]	EC50	1 to 99 nM
COC(=O)N[C@H](C(=O)N1CCC[C@H]1c1ncc(-c2ccc(-c3ccc(-c4cnc([C@@H]5CCCN5C(=O)[C@@H](NC(=NC#N)N(C)C)C(C)C)[nH]4)cc3)cc2)[nH]1)C(C)C	EC50	0.001 to 0.999 nM
COC(=O)N[C@@H](C(=O)N1CCC[C@H]1c1ncc(-c2ccc(-c3ccc(-c4cnc([C@@H]5CCCN5C(=O)[C@H](NC(=O)OC)c5ccccc5)[nH]4)cc3CN(C)C)cc2)[nH]1)c1ccccc1	EC50	100 to 999 nM
C[C@@H](c1ncc(-c2ccc(-c3ccc(-c4cnc([C@H](C)N(C)C(=O)[C@@H](c5ccccc5)N(C)C)[nH]4)cc3)cc2)[nH]1)N(C)C(=O)[C@@H](c1ccccc1)N(C)C	EC50	0.001 to 0.999 nM
CCN(CC)C(C)C(=O)N1CCC[C@H]1c1nc(C(F)(F)F)c(-c2ccc(-c3ncc(-c4cnc([C@@H]5CCCN5C(=O)[C@@H](C)N(CC)CC)[nH]4)cn3)cc2)[nH]1 (stereo in doubt)	EC50	1 to 99 nM
COC(=O)NC(C(=O)Nc1ncc(-c2ccc(-c3ccc(-c4cnc([C@@H]5CCCN5C(O)[C@@H](NC(=O)OC)C(C)C)[nH]4)cc3)cc2)[nH]1)C(C)C (stereo partly shown)	EC50	0.001 to 0.999 nM
COC(=O)N[C@@H](C(=O)N1CCC[C@H]1c1nc(-c2cnc(-c3ccc(-c4cnc([C@@H]5CCCN5C(=O)[C@H](NC(=O)OC)c5ccccc5)[nH]4)c(F)c3)nc2)c[nH]1)c1ccccc1	EC50	0.001 to 0.999 nM
COC(=O)N[C@@H](C(=O)N1CCC[C@H]1c1ncc(-c2ccc(-c3ccc(-c4cnc([C@@H]5CCCN5C(=O)N5CCOCC5)[nH]4)cn3)cc2)[nH]1)c1ccccc1	EC50	0.001 to 0.999 nM
COC(=O)N[C@@H](C)C(=O)N1CCC[C@H]1c1nc(-c2cnc(-c3ccc(-c4cnc([C@@H]5CCCN5C(=O)[C@H](C)NC(=O)OC)[nH]4)cc3)nc2)c[nH]1	EC50	0.001 to 0.999 nM
COC(=O)N[C@@H](C(=O)N(C)[C@@H](C)c1ncc(-c2ccc(-c3ccc(-c4cnc([C@@H]5CCCN5C(=O)[C@H](NC(=O)OC)c5ccccc5)[nH]4)cc3)cc2)[nH]1)c1ccccc1	EC50	0.001 to 0.999 nM
COC(=O)N[C@@H](C(=O)N1CCC[C@H]1c1ncc(-c2ccc(-c3cnc(-c4cnc([C@@H]5CCCN5C(=O)[C@H](NC(=O)OC)c5ccccc5)[nH]4)cn3)cc2)[nH]1)c1ccccc1 [Example 152j-8]	EC50	0.001 to 0.999 nM
CCN(CC)[C@@H](C(=O)N1CCC[C@H]1c1ncc(-c2cnc(-c3ccc(-c4[nH]c([C@@H]5CCCN5C(=O)[C@@H](c5ccccc5)N(CC)CC)nc4C(F)(F)F)cc3)nc2)[nH]1)c1ccccc1	EC50	0.001 to 0.999 nM
C[C@@H](c1ncc(-c2ccc(-c3ccc(-c4cnc([C@@H]5CCCN5C(=O)[C@@H](c5ccccc5)N(C)C)[nH]4)cc3)cc2)[nH]1)N(C)C(=O)[C@@H](c1ccccc1)N(C)C	EC50	0.001 to 0.999 nM
COCC[C@H](NC(=O)OC)C(=O)N[C@H](c1nc(-c2ccc(-c3ccc(-c4c[nH]c([C@@H]5CCCN5C(=O)[C@H](CCOC)NC(=O)OC)n4)cc3)cc2)c[nH]1)C(C)C	EC50	0.001 to 0.999 nM
COC(=O)N[C@@H](C(=O)N1CCC[C@H]1c1ncc(-c2cnc(-c3ncc(-c4cnc([C@@H]5CCCN5C(=O)[C@H](NC(=O)OC)c5ccccc5)[nH]4)cn3)nc2)[nH]1)c1ccccc1 [Example 153c-4]	EC50	1000 to 10000 nM
CN(C)[C@@H](C(=O)N1CCC[C@H]1c1ncc(-c2ccc(-c3cnc(-c4cnc([C@@H]5CCCN5C(=O)[C@@H](c5ccccc5)N(C)C)[nH]4)cn3)cc2)[nH]1)c1ccccc1 [Example 152j-7]	EC50	1 to 99 nM

Measured values drawn from patent US7745636B2 for this set.
